Tested on: Mus musculus
Assay: In vivo inhibitory activity (1 mg/kg) against endotoxin-induced hemoconcentration in ICR mice with endotoxin concentration of 55 mg/kg
Assay type: functional
quantity: Change of hemoconcentration
Output spec: single numeric token, no unit.

## Input Complete the entry with Change of hemoconcentration for CCCCCCCCCCCCCC(=O)OC(CCCCCCCCCCC)CC(=O)OC1C(NC(=O)CC(CCCCCCCCCCC)OC(=O)CCCCCCCCCCC)C(OC2CC(OC(=O)CC(O)CCCCCCCCCCC)C(NC(=O)CC(O)CCCCCCCCCCC)C(O)O2)OC(CO)C1OP(=O)(O)O (stereo unspecified)
## Output 24

====

Tested on: Mus musculus
Assay: In vivo inhibitory activity (1 mg/kg) against endotoxin-induced hemoconcentration in ICR mice with endotoxin concentration of 55 mg/kg
Assay type: functional
Consider the following molecules and their measured Change readings.
Numeric answer only, unit % assumed.

>  <molecule>
CCCCCCCCCCCCCC(=O)OC(CCCCCCCCCCC)CC(=O)O[C@@H]1[C@@H](NC(=O)CC(CCCCCCCCCCC)OC(=O)CCCCCCCCCCC)[C@H](O[C@@H]2C[C@H](OC(=O)CC(O)CCCCCCCCCCC)[C@@H](NC(=O)CC(O)CCCCCCCCCCC)[C@@H](O)O2)O[C@H](CO)[C@H]1OP(=O)(O)O.CCCCCCCCCCCCCCCCCCNC(=O)OC[C@H]1C[C@H](COC(=O)N(Cc2cccc[n+]2CC)C(C)=O)C1.[I-] (stereo partly specified)

>  <scale unit>
%

>  <Change>
25

$$$$

Next:
## Input Complete the entry with Change for CCCCCCCCCCCCCC(=O)OC(CCCCCCCCCCC)CC(=O)OC1C(NC(=O)CC(CCCCCCCCCCC)OC(=O)CCCCCCCCCCC)C(OC2CC(OC(=O)CC(O)CCCCCCCCCCC)C(NC(=O)CC(O)CCCCCCCCCCC)C(O)O2)OC(CO)C1OP(=O)(O)O.CCCCCCCCCCCCCCCCCCNC(=O)OC[C@H]1C[C@H](COC(=O)N(Cc2cccc[n+]2CC)C(C)=O)O1.[I-] (stereo unspecified)
## Output 53

====

Tested on: Mus musculus
Assay: In vivo inhibitory activity (1 mg/kg) against endotoxin-induced hemoconcentration in ICR mice with endotoxin concentration of 55 mg/kg
Format: functional
quantity: Change (%)
Numeric answer only, unit % assumed.

>  <compound>
CCCCCCCCCCCCCC(=O)OC(CCCCCCCCCCC)CC(=O)OC1C(NC(=O)CC(CCCCCCCCCCC)OC(=O)CCCCCCCCCCC)C(OC2CC(OC(=O)CC(O)CCCCCCCCCCC)C(NC(=O)CC(O)CCCCCCCCCCC)C(O)O2)OC(CO)C1OP(=O)(O)O.CCCCCCCCCCCCCCCCNC(=O)OC[C@@H]1C[C@@H](COC(=O)N(Cc2cccc[n+]2CC)C(C)=O)S1.[Cl-] (centres undefined)

>  <tested on>
Mus musculus

>  <Change, %>
53

$$$$
>  <compound>
CCCCCCCCCCCCCC(=O)OC(CCCCCCCCCCC)CC(=O)OC1C(NC(=O)CC(CCCCCCCCCCC)OC(=O)CCCCCCCCCCC)C(OC2CC(OC(=O)CC(O)CCCCCCCCCCC)C(NC(=O)CC(O)CCCCCCCCCCC)C(O)O2)OC(CO)C1OP(=O)(O)O.CCCCCCCCCCCCCCCCCCNC(=O)OC[C@@H]1C[C@@H](COC(=O)N(Cc2cccc[n+]2CC)C(C)=O)N1C(C)=O.[Cl-] (centres undefined)

>  <tested on>
Mus musculus

>  <Change, %>
55

$$$$
>  <compound>
CCCCCCCCCCCCCC(=O)OC(CCCCCCCCCCC)CC(=O)OC1C(NC(=O)CC(CCCCCCCCCCC)OC(=O)CCCCCCCCCCC)C(OC2CC(OC(=O)CC(O)CCCCCCCCCCC)C(NC(=O)CC(O)CCCCCCCCCCC)C(O)O2)OC(CO)C1OP(=O)(O)O (centres undefined)

>  <tested on>
Mus musculus

>  <Change, %>
100

$$$$

## Input Complete the entry with Change for CCCCCCCCCCCCCCCCCCNC(=O)OCC(COC(=O)N(Cc1cccc[n+]1CC)C(C)=O)OC.[Cl-] (centres undefined)
## Output 48
